Tested on: MRSA T144
Assay: MIC assay of β-lactams in the presence of AMPs (potentiation)
Format: cell-based, Staphylococcus aureus
Conditions: + 1/4 MIC GN1
Assay Endpoint: MIC^b, MIC in combination of antibiotics and 1/4 MIC GN1 (µg/mL)
Number only, in µg/mL; omit the unit.

Study these solved cases before continuing.
Compound: CO/N=C(\C(=O)N[C@@H]1C(=O)N2C(C(=O)O)=C(CSc3nc(=O)c(=O)[nH]n3C)CS[C@H]12)c1csc(N)n1 [Ceftriaxone]
Measured Target: MRSA T144
Units: µg/mL
Observed Result: 4
//
Compound: CC1(C)S[C@@H]2[C@H](NC(=O)[C@H](C(=O)O)c3ccsc3)C(=O)N2[C@H]1C(=O)O [Ticarcillin]
Measured Target: MRSA T144
Units: µg/mL
Observed Result: 1
//
Compound: CO/N=C(\C(=O)N[C@@H]1C(=O)N2C(C(=O)[O-])=C(C[N+]3(C)CCCC3)CS[C@H]12)c1csc(N)n1 [Cefepime]
Measured Target: MRSA T144
Units: µg/mL
Observed Result: 2
//
Compound: CC1(C)S[C@@H]2[C@H](NC(=O)C(C(=O)O)c3ccccc3)C(=O)N2[C@H]1C(=O)O (stereo partly drawn) [Carbenicillin]
Measured Target: MRSA T144
Units: µg/mL
Observed Result: 1
//
Compound: CC1(C)S[C@@H]2[C@H](NC(=O)[C@H](N)c3ccccc3)C(=O)N2[C@H]1C(=O)O [Ampicillin]
Measured Target: MRSA T144
Units: µg/mL
Observed Result: 8
//
Compound: Cc1onc(-c2ccccc2)c1C(=O)N[C@@H]1C(=O)N2[C@@H]1SC(C)(C)[C@@H]2C(=O)O [Oxacillin]
Measured Target: MRSA T144
Units: µg/mL
Observed Result: 0.03125
//
Compound: CO/N=C(\C(=O)N[C@@H]1C(=O)N2C(C(=O)O)=C(COC(N)=O)CS[C@H]12)c1ccco1 [Cefuroxime]
Measured Target: MRSA T144
Units: µg/mL
Observed Result: 1
//
Compound: CCN1CCN(C(=O)N[C@@H](C(=O)N[C@@H]2C(=O)N3[C@@H]2SC(C)(C)[C@@H]3C(=O)O)c2ccccc2)C(=O)C1=O [Piperacillin]
Measured Target: MRSA T144
Units: µg/mL
Observed Result: 8

// query Find MIC^b, MIC in combination of antibiotics and 1/4 MIC GN1 (MRSA T144) for the entry C[C@@H](O)[C@H]1C(=O)N2C(C(=O)O)=C(S[C@@H]3CN[C@H](C(=O)N(C)C)C3)[C@H](C)[C@H]12 [Meropenem]
// result 0.0625

====

Test system: S. aureus 29213
Assay: MIC of β-lactams with/without GN1
Type: cell-based, Staphylococcus aureus
Conditions: antibiotic + 1/2 MIC GN1
Protocol: MICs determination of drugs was based on the standard microdilution method as described previously.^[ [46] ^] Briefly, compounds were twofold serial dilution with MHB. Next, AMPs were added to the log‐phase bacteria suspensions (1 × 10^6 CFUs mL^−1) and then mixed with compounds in a 96‐well microliter plate (Corning, NY, USA).
Reported MIC (+1/2 MIC GN1) values follow for various molecules
Number only, in µg/mL; omit the unit.

Study these solved cases before continuing.
Molecule: CO/N=C(\C(=O)N[C@@H]1C(=O)N2C(C(=O)[O-])=C(C[N+]3(C)CCCC3)CS[C@H]12)c1csc(N)n1 [Cefepime]
Units: µg/mL
MIC (+1/2 MIC GN1): 2

Molecule: C[C@@H](O)[C@H]1C(=O)N2C(C(=O)O)=C(S[C@@H]3CN[C@H](C(=O)N(C)C)C3)[C@H](C)[C@H]12 [Meropenem]
Units: µg/mL
MIC (+1/2 MIC GN1): 0.03125

Molecule: CC1(C)S[C@@H]2[C@H](NC(=O)[C@H](N)c3ccccc3)C(=O)N2[C@H]1C(=O)O [Ampicillin]
Units: µg/mL
MIC (+1/2 MIC GN1): 8

Molecule: CCN1CCN(C(=O)N[C@@H](C(=O)N[C@@H]2C(=O)N3[C@@H]2SC(C)(C)[C@@H]3C(=O)O)c2ccccc2)C(=O)C1=O [Piperacillin]
Units: µg/mL
MIC (+1/2 MIC GN1): 0.5

Continue with the molecule presented below.
// query I am curious: what MIC (+1/2 MIC GN1) value has been reported for CC1(C)S[C@@H]2[C@H](NC(=O)[C@H](C(=O)O)c3ccsc3)C(=O)N2[C@H]1C(=O)O [Ticarcillin] ?
// result 2

====

Reported MIC values follow for various compounds
System: MRSA T144
Assay: MIC assay, agent alone
Assay type: cell-based, Staphylococcus aureus
Conditions: Staphylococcus aureus; MRSA T144; read-out: MIC^a, MIC in the presence of antibiotics only
Number only, in µg/mL; omit the unit.

Structure Smiles: Cc1onc(-c2ccccc2)c1C(=O)N[C@@H]1C(=O)N2[C@@H]1SC(C)(C)[C@@H]2C(=O)O
Measured Target: MRSA T144
Observed Result: 1
//
Structure Smiles: CC1(C)S[C@@H]2[C@H](NC(=O)[C@H](C(=O)O)c3ccsc3)C(=O)N2[C@H]1C(=O)O
Measured Target: MRSA T144
Observed Result: 16

// query I am curious: what MIC value has been reported for `CC1(C)S[C@@H]2[C@H](NC(=O)[C@H](N)c3ccccc3)C(=O)N2[C@H]1C(=O)O` ?
// result 512
